- targetUnderTest: cloned human MC4R (Homo sapiens, UniProt P32245)
- Construct: made in house; host or cells: Hi5 insect cells (baculovirus infection); membrane preparation
- Sequence (P32245 whole entry): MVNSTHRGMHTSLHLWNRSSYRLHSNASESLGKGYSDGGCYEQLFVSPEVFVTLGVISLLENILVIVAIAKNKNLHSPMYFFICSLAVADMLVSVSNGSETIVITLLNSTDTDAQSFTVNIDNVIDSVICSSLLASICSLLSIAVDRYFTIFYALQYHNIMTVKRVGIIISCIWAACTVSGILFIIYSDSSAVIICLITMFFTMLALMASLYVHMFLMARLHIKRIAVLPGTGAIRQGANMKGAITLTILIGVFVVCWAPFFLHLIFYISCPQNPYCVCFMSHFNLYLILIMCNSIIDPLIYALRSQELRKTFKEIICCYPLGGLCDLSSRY
- assay: Membrane binding assay: competitive inhibition of [125I]NDP-α-MSH binding
- conditionNotes: at 10 μM; [125I]NDP-α-MSH displacement; read-out: Displacement Rate (%) (at 10 μM)
Property: inhibition at 10 µM; scope: individual compounds

>  <compound>
CC(C)(C)c1ccc(-c2ccc(C[C@H](N)C(=O)N3CCN(Cc4cccc(Cl)c4Cl)CC3)cc2)cc1

>  <inhibition at 10 µM>
91 to 100%

$$$$
>  <compound>
N[C@@H](Cc1ccc(OCc2ccccc2)cc1)C(=O)N1CCN(CC2CCCCC2)CC1

>  <inhibition at 10 µM>
71 to 90%

$$$$
>  <compound>
N[C@@H](Cc1ccc(OCc2ccccc2)cc1)C(=O)N1CCN(Cc2cccc([N+](=O)[O-])c2)CC1

>  <inhibition at 10 µM>
35 to 70%

$$$$
>  <compound>
CN(C)c1ccc(CN2CCCN(C(=O)[C@@H](N)Cc3ccc(OCc4ccccc4)cc3)CC2)cc1

>  <inhibition at 10 µM>
35 to 70%

$$$$
>  <compound>
COc1cccc(CC(C)N2CCCN(C(=O)[C@@H](N)Cc3ccc(OCc4ccccc4)cc3)CC2)c1 (some centres unmarked)

>  <inhibition at 10 µM>
35 to 70%

$$$$

These measurements were taken from patent US6916812B2.
